system tested: T1, human LAG3 expressed on HEK293 cells (human, UniProt P18627 23-525)
T1 construct: also called hLAG3; HEK293/hLAG3
T1 sequence: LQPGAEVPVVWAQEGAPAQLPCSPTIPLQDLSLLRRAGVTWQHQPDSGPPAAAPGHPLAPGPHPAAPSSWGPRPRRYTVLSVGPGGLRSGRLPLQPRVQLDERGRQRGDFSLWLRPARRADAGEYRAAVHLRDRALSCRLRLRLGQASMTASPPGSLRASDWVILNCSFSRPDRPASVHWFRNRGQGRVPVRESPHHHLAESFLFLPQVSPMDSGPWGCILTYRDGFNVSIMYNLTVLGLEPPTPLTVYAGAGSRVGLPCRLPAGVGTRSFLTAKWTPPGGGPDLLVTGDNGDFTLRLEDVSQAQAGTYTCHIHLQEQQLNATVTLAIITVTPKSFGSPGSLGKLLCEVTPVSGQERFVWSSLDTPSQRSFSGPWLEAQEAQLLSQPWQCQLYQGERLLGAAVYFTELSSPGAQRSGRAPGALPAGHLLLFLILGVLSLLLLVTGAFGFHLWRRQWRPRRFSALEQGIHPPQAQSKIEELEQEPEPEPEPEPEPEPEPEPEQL
assay info: electrochemiluminescence cell binding
Would you mind telling me the reported Ratio of 100 nM antibody binding HEK293-hLAG3 to HEK293 cells of each entry?
Answer with the value's number alone.

The recorded Ratio of 100 nM antibody binding HEK293-hLAG3 to HEK293 cells for H4sH15479P (antibody, V domains shown) VH: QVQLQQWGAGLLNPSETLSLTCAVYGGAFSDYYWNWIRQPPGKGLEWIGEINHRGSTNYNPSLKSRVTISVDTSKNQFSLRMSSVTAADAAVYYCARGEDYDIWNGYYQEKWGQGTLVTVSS VL: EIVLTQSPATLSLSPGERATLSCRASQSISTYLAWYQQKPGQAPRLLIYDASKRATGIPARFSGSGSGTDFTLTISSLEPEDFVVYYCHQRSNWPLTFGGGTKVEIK is 17.8

The recorded Ratio of 100 nM antibody binding HEK293-hLAG3 to HEK293 cells for H4H14813N (antibody, human IgG4, V domains shown, H4H = human IgG4 Fc with S108P hinge mutation) VH: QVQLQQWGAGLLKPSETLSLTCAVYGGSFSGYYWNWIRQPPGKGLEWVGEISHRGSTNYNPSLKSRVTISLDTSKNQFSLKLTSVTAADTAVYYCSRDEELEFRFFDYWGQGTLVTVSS VL: EIVLTQSPATLSLSPGERATLSCRASQSVSSYLAWYQQKPGQAPRLLVYGASNRATGIPARFSGSGSGTDFTLTISSLEPEDFAFYYCQQRSNWPLTFGGGTKVEIK is 8.9

The recorded Ratio of 100 nM antibody binding HEK293-hLAG3 to HEK293 cells for H4sH14813N (antibody, human IgG4 S228P, kappa, V domains shown, H4sH = modified human IgG4 Fc) VH: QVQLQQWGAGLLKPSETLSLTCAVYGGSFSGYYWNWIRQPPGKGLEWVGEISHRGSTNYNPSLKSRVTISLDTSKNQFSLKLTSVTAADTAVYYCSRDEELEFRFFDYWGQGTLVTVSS VL: EIVLTQSPATLSLSPGERATLSCRASQSVSSYLAWYQQKPGQAPRLLVYGASNRATGIPARFSGSGSGTDFTLTISSLEPEDFAFYYCQQRSNWPLTFGGGTKVEIKR is 19.8

The recorded Ratio of 100 nM antibody binding HEK293-hLAG3 to HEK293 cells for H4H15479P (antibody, human IgG4, V domains shown) VH: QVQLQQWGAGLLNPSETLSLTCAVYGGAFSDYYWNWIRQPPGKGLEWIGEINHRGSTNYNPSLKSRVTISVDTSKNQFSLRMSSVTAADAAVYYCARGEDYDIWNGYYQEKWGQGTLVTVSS VL: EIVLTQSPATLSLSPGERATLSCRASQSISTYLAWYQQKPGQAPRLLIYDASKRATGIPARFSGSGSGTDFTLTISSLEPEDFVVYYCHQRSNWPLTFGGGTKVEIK is 20.1
